pIC50: −log10 of the molar value.
The entries that follow carry pIC50 values tested on Poly [ADP-ribose] polymerase tankyrase-1 (Homo sapiens), drawn from several published reports.

>  <Smiles Repr>
CNC(=O)c1nc[nH]c1C(=O)N[C@H]1CC[C@H](C(=O)Nc2cc(OC)c(OC)cc2Cl)CC1

>  <Experimental System>
Poly [ADP-ribose] polymerase tankyrase-1 (Homo sapiens)

>  <pIC50>
6.82

$$$$
>  <Smiles Repr>
CCOc1ccc(C(=O)C2CCN(CC(=O)NCc3nc4c(c(=O)[nH]3)COCC4)CC2)cc1

>  <Experimental System>
Poly [ADP-ribose] polymerase tankyrase-1 (Homo sapiens)

>  <pIC50>
7.57

$$$$
>  <Smiles Repr>
Cn1ccc2c(=O)[nH]c(-c3ccc(C(F)(F)F)cc3)nc21

>  <Experimental System>
Poly [ADP-ribose] polymerase tankyrase-1 (Homo sapiens)

>  <pIC50>
7.42

$$$$
>  <Smiles Repr>
O=C(c1ccc(F)cc1)C1CCN(CC(=O)N(Cc2ccccn2)Cc2nc3c(c(=O)[nH]2)COCC3)CC1

>  <Experimental System>
Poly [ADP-ribose] polymerase tankyrase-1 (Homo sapiens)

>  <pIC50>
6.92

$$$$
